test system: A498 renal; assay: NCI-60 one-dose screen, 48 h (100 = growth as untreated, 0 = no growth, -100 = all killed); conditions: 10 µM unless noted
About 83,000 compounds went through this panel and 20% of them were active in at least one assay; those are over-represented in the sample as a whole.
Record fulfilled whenever growth is at 80% or higher; record not fulfilled when lower.

Past entries and their recorded results:
compound	class label
N[C@@H](CC/[N+]([O-])=N/O)C(=O)O	fulfilled
CC(=O)c1ccc(Nc2nc(NCCO)nc(Nc3ccc(Cl)cc3)n2)cc1	not fulfilled
COc1cc(NC(=O)CCSc2nc3ccccc3c(=O)n2CCc2ccccn2)cc(OC)c1OC	not fulfilled
CCOC(=O)CSc1c(-c2ccccc2)c2cc(Cl)ccc2[nH]c1=O	fulfilled
Fc1cccc(COc2ccc(Nc3ncnc4onc(-c5ccccc5)c34)cc2)c1	not fulfilled
CCOC(=O)C1(Cc2ccccc2)CCN(Cc2cccc(OC)c2O)CC1	not fulfilled

From here, focus on the item given below.
Would you say NC1C(N)C(N)C1N (stereo unspecified) shows growth at minimum 80%? fulfilled
